tested on: 171881-019-R-J1-PDC tumor spheroid viability; assay: Anticancer human tumor 171881-019-R-J1-PDC patient-derived invasive breast carcinoma cell line growth inhibition [PI3K]; settings: second compound 0.316 µM; first compound 0.1 µM; spheroids with HUVEC and MSC; active = viability on the fitted dose curve at most 10% of control; inactive = the rest
Result category, one only: active, inactive

Previously resolved entries follow.
COMPOUND | ASSAY SYSTEM | DISCRETE LABEL
C[C@@H](NC(=O)c1ncnc(N)c1Cl)c1ncc(C(=O)Nc2cc(C(F)(F)F)c(Cl)cn2)s1 + CC(Nc1ncnc2nc[nH]c12)c1cc2cccc(Cl)c2c(=O)n1-c1ccccc1 | 171881-019-R-J1-PDC tumor spheroid viability | inactive
CC(C)NCC(C(=O)N1CCN(c2ncnc3c2C(C)CC3O)CC1)c1ccc(Cl)cc1 (stereo unspecified) + COc1c(OCCCN2CCOCC2)ccc2c3n(c(=NC(=O)c4cnc(N)nc4)nc12)CCN3 | 171881-019-R-J1-PDC tumor spheroid viability | active
C[C@@H](NC(=O)c1ncnc(N)c1Cl)c1ncc(C(=O)Nc2cc(C(F)(F)F)c(Cl)cn2)s1 + COc1c(OCCCN2CCOCC2)ccc2c3n(c(=NC(=O)c4cnc(N)nc4)nc12)CCN3 | 171881-019-R-J1-PDC tumor spheroid viability | active
CC1(C)CCC(Nc2ncc(C(F)(F)F)c(-c3c[nH]c4c(P(C)(C)=O)c(C#N)ccc34)n2)CN1 (stereo unspecified) + CC(Nc1ncnc2nc[nH]c12)c1cc2cccc(Cl)c2c(=O)n1-c1ccccc1 | 171881-019-R-J1-PDC tumor spheroid viability | inactive
C=CC(=O)N1CCN(c2nc(=O)n(-c3c(C)ccnc3C(C)C)c3nc(-c4c(O)cccc4F)c(F)cc23)C(C)C1 (stereo unspecified) + COc1c(OCCCN2CCOCC2)ccc2c3n(c(=NC(=O)c4cnc(N)nc4)nc12)CCN3 | 171881-019-R-J1-PDC tumor spheroid viability | active

QUERY: Tell me the assay call for C[C@@H](NC(=O)c1ncnc(N)c1Cl)c1ncc(C(=O)Nc2cc(C(F)(F)F)c(Cl)cn2)s1 + Cc1nc(NC(=O)N2CCCC2C(N)=O)sc1-c1ccnc(C(C)(C)C(F)(F)F)c1 please.
RESULT: inactive

QUERY: Tell me the assay call for Cn1nccc1Nc1nccc(-c2ccn(C(CO)c3ccc(Cl)c(F)c3)c(=O)c2)n1 (stereo unspecified) + CC(Nc1ccc2c(c1)OCCn1cc(N3C(=O)OCC3C(F)F)nc1-2)C(N)=O please.
RESULT: inactive

QUERY: Tell me the assay call for CC(=O)c1c(C)c2cnc(Nc3ccc(N4CCNCC4)cn3)nc2n(C2CCCC2)c1=O + Cc1nc(NC(=O)N2CCCC2C(N)=O)sc1-c1ccnc(C(C)(C)C(F)(F)F)c1 please.
RESULT: inactive

QUERY: Tell me the assay call for CC(C)NCC(C(=O)N1CCN(c2ncnc3c2C(C)CC3O)CC1)c1ccc(Cl)cc1 (stereo unspecified) + Cc1nc(NC(=O)N2CCCC2C(N)=O)sc1-c1ccnc(C(C)(C)C(F)(F)F)c1 please.
RESULT: inactive

QUERY: Tell me the assay call for Cn1nccc1Nc1nccc(-c2ccn(C(CO)c3ccc(Cl)c(F)c3)c(=O)c2)n1 (stereo unspecified) + COc1c(OCCCN2CCOCC2)ccc2c3n(c(=NC(=O)c4cnc(N)nc4)nc12)CCN3 please.
RESULT: active

QUERY: Tell me the assay call for CC(=O)c1c(C)c2cnc(Nc3ccc(N4CCNCC4)cn3)nc2n(C2CCCC2)c1=O + COc1c(OCCCN2CCOCC2)ccc2c3n(c(=NC(=O)c4cnc(N)nc4)nc12)CCN3 please.
RESULT: active

---

test system: 171881-019-R-J1-PDC tumor spheroid viability; assay: Anticancer human tumor 171881-019-R-J1-PDC cell line growth inhibition [PI3K]; conditions: second compound 0.1 µM; first compound 0.000316 µM; spheroids with HUVEC and MSC; active = viability on the fitted dose curve at most 10% of control; inactive = the rest;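 note: spheroids exposed to compound for 7 days before viability read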
Result category, one only: 1 (yes) (active), 0 (no) (inactive)

Previously resolved entries follow.
COMPOUND | DISCRETE LABEL
Cn1ncnc1[C@H]1c2n[nH]c(=O)c3cc(F)cc(c23)N[C@@H]1c1ccc(F)cc1 + COc1c(OCCCN2CCOCC2)ccc2c3n(c(=NC(=O)c4cnc(N)nc4)nc12)CCN3 | 1 (yes)
CC(C)n1nc(-c2ccc3oc(N)nc3c2)c2c(N)ncnc21 + COc1c(OCCCN2CCOCC2)ccc2c3n(c(=NC(=O)c4cnc(N)nc4)nc12)CCN3 | 1 (yes)
Cn1ncnc1[C@H]1c2n[nH]c(=O)c3cc(F)cc(c23)N[C@@H]1c1ccc(F)cc1 + Cc1nc(NC(=O)N2CCCC2C(N)=O)sc1-c1ccnc(C(C)(C)C(F)(F)F)c1 | 0 (no)
CC(=O)c1c(C)c2cnc(Nc3ccc(N4CCNCC4)cn3)nc2n(C2CCCC2)c1=O + CC(Nc1ccc2c(c1)OCCn1cc(N3C(=O)OCC3C(F)F)nc1-2)C(N)=O | 0 (no)
CC(=O)c1c(C)c2cnc(Nc3ccc(N4CCNCC4)cn3)nc2n(C2CCCC2)c1=O + CC(Nc1ncnc2nc[nH]c12)c1cc2cccc(Cl)c2c(=O)n1-c1ccccc1 | 0 (no)

QUERY: Tell me the assay call for Cn1ncnc1[C@H]1c2n[nH]c(=O)c3cc(F)cc(c23)N[C@@H]1c1ccc(F)cc1 + CC(Nc1ccc2c(c1)OCCn1cc(N3C(=O)OCC3C(F)F)nc1-2)C(N)=O please.
RESULT: 0 (no)

---

tested on: 171881-019-R-J1-PDC tumor spheroid viability; experiment: Anticancer human tumor 171881-019-R-J1-PDC cell line growth inhibition [PI3K]; settings: curve of first compound; second compound 1 µM; spheroids with HUVEC and MSC;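 note: spheroids exposed to compound for 7 days before viability read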
MEASURED ENDPOINT: IC50

# annotated cases, reported IC50 shown
MOLECULE | IC50
C#Cc1c(F)ccc2cc(O)cc(-c3ncc4c(N5CC6CCC(C5)N6)nc(OCC56CCCN5CC(F)C6)nc4c3F)c12 (stereo not drawn) + COc1c(OCCCN2CCOCC2)ccc2c3n(c(=NC(=O)c4cnc(N)nc4)nc12)CCN3 | < 0.0316 µM
CCCS(=O)(=O)Nc1ccc(F)c(C(=O)c2c[nH]c3ncc(-c4ccc(Cl)cc4)cc23)c1F + Cc1nc(NC(=O)N2CCCC2C(N)=O)sc1-c1ccnc(C(C)(C)C(F)(F)F)c1 | < 0.0316 µM

QUERY: Record lookup: for 171881-019-R-J1-PDC tumor spheroid viability, what IC50 belongs to CC1(C)CCC(Nc2ncc(C(F)(F)F)c(-c3c[nH]c4c(P(C)(C)=O)c(C#N)ccc34)n2)CN1 (stereo not drawn) + CC(Nc1ccc2c(c1)OCCn1cc(N3C(=O)OCC3C(F)F)nc1-2)C(N)=O ?
RESULT: < 0.0316 µM

---

Tested on: 171881-019-R-J1-PDC tumor spheroid viability
Experiment: Anticancer human tumor 171881-019-R-J1-PDC cell line growth inhibition [PI3K];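 note: spheroids exposed to compound for 7 days before viability read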
Settings: curve of first compound; second compound 3.16 µM; spheroids with HUVEC and MSC
From the text: Combinatorial screen of targeted agents with the PI3K inhibitors inavolisib, alpelisib, duvelisib, and copanlisib in multi-cell type tumor spheroids A high-throughput screen of multi-cell type tumor spheroids was designed to identify active combinations of targeted small molecules and PI3K pathway inhibitors. […] Compounds. […] If the clinical Cmax for an agent had not been determined, the highest concentration tested was 10 microM. […]
Measured IC50 values are reported for all entries that follow.

# annotated cases, reported IC50 shown
COMPOUND | IC50
CC(Cn1ccc(-c2ccc(C#N)c(Cl)c2)n1)NC(=O)c1cc(C(C)O)[nH]n1 (stereo not given) + Cc1nc(NC(=O)N2CCCC2C(N)=O)sc1-c1ccnc(C(C)(C)C(F)(F)F)c1 | < 0.0316 µM
CC1(C)CCC(Nc2ncc(C(F)(F)F)c(-c3c[nH]c4c(P(C)(C)=O)c(C#N)ccc34)n2)CN1 (stereo not given) + CC(Nc1ncnc2nc[nH]c12)c1cc2cccc(Cl)c2c(=O)n1-c1ccccc1 | 4.43 µM
CC(=O)c1c(C)c2cnc(Nc3ccc(N4CCNCC4)cn3)nc2n(C2CCCC2)c1=O + CC(Nc1ncnc2nc[nH]c12)c1cc2cccc(Cl)c2c(=O)n1-c1ccccc1 | > 0.1 µM

QUERY: Endpoint output: IC50 of Cn1ncc(Cl)c1-c1cc(C(=O)NC(CN)Cc2cccc(F)c2)sc1Cl (stereo not given) + Cc1nc(NC(=O)N2CCCC2C(N)=O)sc1-c1ccnc(C(C)(C)C(F)(F)F)c1 . Value?
RESULT: < 0.0316 µM

QUERY: Endpoint output: IC50 of Cn1cnc2c(F)c(Nc3ccc(Br)cc3Cl)c(C(=O)NOCCO)cc21 + Cc1nc(NC(=O)N2CCCC2C(N)=O)sc1-c1ccnc(C(C)(C)C(F)(F)F)c1 . Value?
RESULT: < 0.00949 µM

---

system: 171881-019-R-J1-PDC tumor spheroid viability; test: Anticancer human tumor 171881-019-R-J1-PDC cell line growth inhibition [PI3K]; conditions: curve of first compound; second compound 1 µM; spheroids with HUVEC and MSC;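 note: spheroids exposed to compound for 7 days before viability read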
pIC50: −log10 of the molar value.
MEASURED ENDPOINT: pIC50

# annotated cases, reported pIC50 shown
MOLECULE | ASSAY SYSTEM | MEASURED ENDPOINT | READOUT VALUE
CC(Cn1ccc(-c2ccc(C#N)c(Cl)c2)n1)NC(=O)c1cc(C(C)O)[nH]n1 (stereo not drawn) + Cc1nc(NC(=O)N2CCCC2C(N)=O)sc1-c1ccnc(C(C)(C)C(F)(F)F)c1 | 171881-019-R-J1-PDC tumor spheroid viability | pIC50 | > 7.50
CC(C)NCC(C(=O)N1CCN(c2ncnc3c2C(C)CC3O)CC1)c1ccc(Cl)cc1 (stereo not drawn) + CC(Nc1ncnc2nc[nH]c12)c1cc2cccc(Cl)c2c(=O)n1-c1ccccc1 | 171881-019-R-J1-PDC tumor spheroid viability | pIC50 | 6.40

Now consider the entry below.
QUERY: Endpoint output: pIC50 of CC(C)NCC(C(=O)N1CCN(c2ncnc3c2C(C)CC3O)CC1)c1ccc(Cl)cc1 (stereo not drawn) + CC(Nc1ccc2c(c1)OCCn1cc(N3C(=O)OCC3C(F)F)nc1-2)C(N)=O . Value?
RESULT: > 7.50

The origin of these recorded values is PubChem BioAssay AID1963986.
